assay: A CellTox Green Cytotoxicity Assay to monitor cytotoxicity in HEK293 cells - 32 hour (AID 1224881); conditions: CellTox Green fluorescence; series mostly up to 76.8 µM; further: nearly all actives have a fitted effect of over 40% in size; further: potency means the concentration at half of the fitted maximal effect
Results filed as inconclusive are left out. Activity calls are given as the source filed them. The call rests on the fitted dose curve; in most records, active means well fitted activation curve with a large enough effect in the repeat runs; inconclusive means weak or mixed curves; inactive means flat fitted curve, though single readings scatter.
measurement-kind: Potency

- O=P(O)(OCc1ccccc1)OCc1ccccc1: inactive
- COC(C)OC: inactive
- CCOC(=O)C(O)c1ccccc1 (configuration not stated): inactive
- O[C@@H](COc1cccc2ncccc12)CN1CCN(C2c3ccccc3[C@@H]3[C@H](c4ccccc42)C3(F)F)CC1 (some centres not stated): inactive
- CCC(=O)O[C@]1(C(=O)CCl)[C@@H](C)C[C@H]2[C@@H]3CCC4=CC(=O)C=C[C@]4(C)[C@@]3(F)[C@@H](O)C[C@@]21C: inactive

The recorded Potency for CCCCC(CC)CN1C(=O)C2C3C=CC(C3)C2C1=O (configuration not stated) is 30.9 µM (active)

====

test: qHTS assay to identify small molecule antagonists of the sonic hedgehog signaling (Shh) pathway (AID 1259369); conditions: NIH/3T3 Gli1-Luc reporter, Shh antagonist, luminescence 24 h; series mostly up to 92.4 µM; further: nearly all actives have a fitted effect of over 45% in size
Results filed as inconclusive are left out. Activity calls are given as the source filed them. The call rests on the fitted dose curve.
Parameter call: string, one of y (active), n (inactive)

These solved cases illustrate the format of a correct answer.
* CCCCCCCCCCO[C@@H]1O[C@H](CO)[C@@H](O)[C@H](O)[C@H]1O | y
* CCCCC1=NC2(CCCC2)C(=O)N1Cc1ccc(-c2ccccc2-c2nn[nH]n2)cc1 | n
* CCO[Si](CCCCl)(OCC)OCC | n
* O[C@@H](COc1cccc2ncccc12)CN1CCN(C2c3ccccc3[C@@H]3[C@H](c4ccccc42)C3(F)F)CC1 (stereo partly specified) | y
* C#CCN(C)CCCOc1ccc(Cl)cc1Cl | n

Query: recorded result category for CCCCCCCC/C=C\CCCCCCCC(=O)OCC in this test
n

====

assay: qHTS assay to identify small molecule agonists of the progesterone receptor (PR) signaling pathway - cell viability counter screen (AID 1346799); settings: PR-UAS-bla HEK293T viability, CellTiter-Glo luminescence, 16 h; series mostly up to 92.4 µM; further: on the % scale 0 is the no-effect control and ±100 the full control effect; nearly all actives have a fitted effect of over 45% in size
Results filed as inconclusive are left out. Active and inactive are the calls of the source. The call rests on the fitted dose curve.
Output constraint: value belongs to YES (active), NO (inactive)

Worked examples follow.
- COc1ccc(C(=O)N2CCN(CC(=O)N3CCOCC3)CC2)cc1: NO
- C1CCCNCCC1: NO
- O=C(Cl)c1cc(C(=O)Cl)cc(C(=O)Cl)c1: NO
- CCCCC: NO
- C#CCN(C)CCCOc1ccc(Cl)cc1Cl: NO
- CC[N+]1(CC)CCC(=C(c2ccccc2)c2ccccc2)C1C (stereo not drawn): NO

Continue with the compound presented below.
Field: outcome | Entry: CN(C)c1ccc(CCO)cc1
NO

====

test: qHTS assay to identify small molecule agonists of the androgen receptor (AR) signaling pathway in the presence of an antagonist - cell viability counter screen (AID 1259379); conditions: MDA-kb2 viability, CellTiter-Fluor, 16 h; series mostly up to 92.4 µM; further: nearly all actives have a fitted effect of over 25% in size
Results filed as inconclusive are left out. Active and inactive are the calls of the source. Calls follow the shape of the dose curve; as a rule, active = well fitted cell-killing curve with a large enough effect in the repeat runs; inconclusive = weak or mixed curves, or effect the other way; inactive = flat fitted curve, though single readings scatter.
Response enum: yes = active, no = inactive

Sample answers from the record:
• O=[N+]([O-])c1cccc(S(=O)(=O)O)c1 = yes
• CC(CC=O)c1ccccc1 (configuration not stated) = no
• CC(C)(COC(=O)c1ccccc1)COC(=O)c1ccccc1 = no
• O=C1OC(=O)C2C3C=CC(C3)C12 (configuration not stated) = no
• CCC(C)c1cc(C(C)(C)C)c(O)c(C(C)(C)C)c1 (configuration not stated) = no
• NCCCN1CCOCC1 = no

For this compound, state the assay outcome: CCO[Si](CCCCl)(OCC)OCC
no

====

assay: qHTS RealTime-Glo MT Cell Viability Assay in HepG2 cells - 0 hour (AID 1224889); conditions: RealTime-Glo luminescence; series mostly up to 76.8 µM; further: nearly all actives have a fitted effect of over 50% in size
Records with an inconclusive call do not appear. Activity calls are given as the source filed them. Calls come from the whole dose curve; as a rule, active = well fitted cell-killing curve with a large enough effect in the repeat runs; inconclusive = weak or mixed curves, or effect the other way; inactive = flat fitted curve, though single readings scatter.
Can you answer with just one of these options? active, inactive

* Cc1cc(N)c2cc(NC(=O)Nc3ccc4nc(C)cc(N)c4c3)ccc2n1 | inactive
* CCCCc1nc2cccnc2n1Cc1ccc(-c2ccccc2-c2nnn[nH]2)cc1 | active
* CC[N+](C)(CC)CCOC(=O)C(O)(c1ccccc1)C1CCCCC1 (stereo not given) | inactive
* CCOCC(O)COc1ccc(NC(=O)CC[S+](C)C)cc1 (stereo not given) | inactive
* CCO[C@H](Cc1ccc(OCCc2ccc(OS(C)(=O)=O)cc2)cc1)C(=O)O | inactive
* CC[N+]1(CC)CCC(=C(c2ccccc2)c2ccccc2)C1C (stereo not given) | inactive
* CC(C)(O)c1ccc(CNC(=O)c2cccnc2Oc2ccc(F)cc2)cc1 | inactive
* CCCCCCCC/C=C\CCCCCCCC(=O)OCC | inactive
* CC(=O)[O][Al] | inactive
* COS(=O)(=O)C(F)(F)F | inactive

Here's the next entry for you.
Hello, I am checking results. What call was entered for O=C(O)c1nc(Cl)c(Cl)c(Cl)c1Cl ?
inactive

====

Some compounds, each annotated with its measured ratio activity, negative = inhibition.
Biological target: Peroxisome proliferator-activated receptor gamma (Homo sapiens) (UniProt P37231)
Sequence (P37231 whole entry, looked up): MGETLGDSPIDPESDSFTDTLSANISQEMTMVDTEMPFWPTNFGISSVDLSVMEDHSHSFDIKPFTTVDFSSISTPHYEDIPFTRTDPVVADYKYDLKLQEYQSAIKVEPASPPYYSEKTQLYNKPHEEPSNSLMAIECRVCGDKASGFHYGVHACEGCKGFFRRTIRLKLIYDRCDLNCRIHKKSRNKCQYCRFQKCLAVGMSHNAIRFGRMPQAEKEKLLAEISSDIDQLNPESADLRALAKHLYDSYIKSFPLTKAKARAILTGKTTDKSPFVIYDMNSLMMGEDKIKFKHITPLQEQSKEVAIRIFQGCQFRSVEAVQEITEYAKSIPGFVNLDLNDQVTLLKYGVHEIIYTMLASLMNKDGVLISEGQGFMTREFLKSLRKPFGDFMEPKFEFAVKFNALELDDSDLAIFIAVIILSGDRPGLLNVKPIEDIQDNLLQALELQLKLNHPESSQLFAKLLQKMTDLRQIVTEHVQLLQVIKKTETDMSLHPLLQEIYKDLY
Assay: qHTS assay to identify small molecule antagonists of the peroxisome proliferator-activated receptor gamma (PPARg) signaling pathway (AID 743191); further: on the % scale 0 is the no-effect control and ±100 the full control effect; nearly all actives have a fitted effect of over 30% in size
Conditions: HEK293H PPARg-UAS-bla, beta-lactamase ratio, antagonist, 17 h; series mostly up to 62.6 µM
From the text: U.S. Tox21 Program National Center for Advancing Translational Sciences [NCATS] NIH Chemical Genomics Center [NCGC] U.S. Environmental Protection Agency [EPA] National Institutes of Environmental Health Sciences [NIEHS] National Toxicology Program [NTP] U.S. Food and Drug Administration [FDA] […]
Inconclusive results are not listed. Active and inactive are the calls of the source. Calls follow the shape of the full dose curve.

Example compounds with recorded ratio activity, negative = inhibition:
* C/C(=C(\CCOP(=O)(O)O)SC(=O)c1ccccc1)N(C=O)Cc1cnc(C)nc1N | 3.86% [at 5.95 µM] (inactive)
* O=C(O)CNCC(=O)O | 11.9% [at 5.95 µM] (inactive)
* NC(N)=NCCC[C@H](N)C(=O)O | 0.163% [at 5.95 µM] (inactive)

Now let's try a different one.
// ratio activity, negative = inhibition lookup, compound = C/C=C/C(=O)CC , result: 6.72% [at 13.2 µM] (inactive)

====

test: qHTS assay to test for compound auto fluorescence at 535 nm (green) in HEK293 cells (AID 720680); settings: green autofluorescence 485/535 nm; series mostly up to 91.3 µM; further: on the % scale 0 is the no-effect control and ±100 the full control effect
The source made the active and inactive calls. Calls come from the whole dose curve; as a rule, active = well fitted curve in the direction sought with a large enough effect in the repeat runs; inconclusive = weak or mixed curves; inactive = flat fitted curve, though single readings scatter.
measurement-kind: fluorescence, % of fluorescein

• Nc1cccc(S(=O)(=O)c2cccc(N)c2)c1 = inactive
• CC(C)Nc1ccc(NC(C)C)c2c1C(=O)c1ccccc1C2=O = inactive
• CC[N+]1(CC)CCC(=C(c2ccccc2)c2ccccc2)C1C (stereo unspecified) = inactive
• CN(C)c1ccc(CCO)cc1 = inactive
• CCCCNc1ccc(C(=O)OCCOCCOCCOCCOCCOCCOCCOCCOCCOC)cc1 = -0.0088% [at 18.6 µM] (inactive)

For this molecule ( Cc1oc(-c2ccccc2)nc1CCOc1cccc2c1ccn2CCC(=O)O ), measured fluorescence, % of fluorescein is inactive

The reported fluorescence, % of fluorescein of the molecule CCCCC(CC)COC(=O)CCCCCCCCC(=O)OCC(CC)CCCC (stereo unspecified) was inactive

Reported fluorescence, % of fluorescein ( Clc1ccc2c(c1)CCc1cccnc1C2=C1CCNCC1 ) = inactive

Sample CN1CCC(N(Cc2cccs2)c2ccccc2)CC1 ; fluorescence, % of fluorescein observed: inactive

GET /value?item= CC(=O)[O][Al][O]C(C)=O &field=fluorescence, % of fluorescein returns inactive

Lab note: measured fluorescence, % of fluorescein of CCC(Cl)CCC(Cl)C(Cl)CC(Cl)C(Cl)C(Cl)CCl (stereo unspecified) was inactive

// recorded fluorescence, % of fluorescein for CN(C)c1ccc(/C=C/c2ccc([N+](=O)[O-])cc2)cc1 : 0.0174% [at 3.72 µM] (inactive)

Looking up O=C(Cl)c1cc(C(=O)Cl)cc(C(=O)Cl)c1 , I found its fluorescence, % of fluorescein recorded as inactive

Looking up O=C1OC(CN2CCOCC2)CN1/N=C/c1ccc([N+](=O)[O-])o1 (stereo unspecified) , I see its fluorescence, % of fluorescein listed as -0.416% [at 18.6 µM] (inactive)

Value of measured fluorescence, % of fluorescein for the entry CCOC(=O)c1cccnc1 : inactive

Quick note, fluorescence, % of fluorescein for Nc1ccccc1S(=O)(=O)c1ccccc1 landed at inactive

The value of fluorescence, % of fluorescein measured for the molecule CO[C@@H]1[C@H](OC(=O)/C=C/C=C/C=C/C=C/C(=O)O)CC[C@]2(CO2)[C@H]1[C@@]1(C)O[C@@H]1CC=C(C)C turned out to be inactive

Memo: CCC(C)c1cc(C(C)(C)C)c(O)c(C(C)(C)C)c1 (stereo unspecified) , reported fluorescence, % of fluorescein: inactive

GET /value?item= O=CC1CC=CCC1 (stereo unspecified) &field=fluorescence, % of fluorescein returns inactive

The molecule CCCCC(CC)CN1C(=O)C2C3C=CC(C3)C2C1=O (stereo unspecified) showed fluorescence, % of fluorescein equal to inactive

Please fill in: fluorescence, % of fluorescein reported for C=CC1CC2C=CC1C2 (stereo unspecified) = inactive
